- procedure_details: chemical genetic growth profiling, strain panel (AID 1159580);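 also: tested at 20 µM; growth read once vehicle control cultures reached saturation at 30 °C; 1 = growth at the plate median or of vehicle wells; lower values mean less growth of the strain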
- condition_set: S. cerevisiae deletion strains, growth OD, locus YGR252W, strain gcn5, hits give low values
Among all 5,500 compounds or so, about 2,000 (36%) were called active. Another 18% or so got no clear call; they are omitted. The list shows a part of the results.
normalized growth by entry:
Enter a number only.

1) CC1=C(/C=C/C(C)=C/C=C/C(C)=C\C(=O)O)C(C)(C)CCC1; 1.02
2) CN1CCc2cccc3c2C1Cc1ccc(O)c(O)c1-3 (configuration not stated); 1.01
3) O=c1ccn([C@@H]2O[C@H](COP(=O)(O)OP(=O)(O)OP(=O)(O)O)[C@@H](O)[C@H]2O)c(=O)[nH]1; 0.975
4) CCOP(=S)(OCC)SCSCC; 0.993
5) CC1=C(/C=C/C(C)=C/C=C/C(C)=C/C=C/C=C(C)/C=C/C=C(C)/C=C/C2=C(C)CCCC2(C)C)C(C)(C)CCC1; 0.998
6) CC1=C(/C=C/C(C)=C/C=C/C(C)=C/CO)C(C)(C)CCC1; 0.985

// switching to the query molecule
Given the entry `CCn1cc(C(=O)O)c(=O)c2cc3c(cc21)OCO3` , report its measured normalized growth.
1

====

- procedure_details: chemical genetic growth profiling, strain panel (AID 1159580);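 also: tested at 20 µM; growth read once vehicle control cultures reached saturation at 30 °C; 1 = growth at the plate median or of vehicle wells; lower values mean less growth of the strain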
- condition_set: S. cerevisiae deletion strains, growth OD, locus YKL048C, strain ELM1, hits give low values
In all, about 5,500 compounds went through this assay and about 2,000 (36%) were called active. Another 18% or so got no clear call; they are omitted. The list shows a part of the results.
Field 'label' (enum: Condition met / Condition not met). Set to Condition met when normalized growth is strictly under 0.6; else Condition not met.

1. CC1(C)C/C(=N/Nc2ccc(C(F)(F)F)cc2)c2cc(C(C)(C)C)c(O)c(O)c2O1; Condition met
2. CSc1cccc(N2C(=O)CC(c3c(Cl)cccc3Cl)CC2=O)c1; Condition not met

In the record for `O=C(Nc1cccc(C(F)(F)F)c1)Oc1ccc(F)cc1Cl` , is normalized growth less than 0.6?
Condition not met

`CCOC(=O)c1c(N=Cc2cc(Br)c(Br)cc2O)sc2c1CCCC2` ?
Condition not met

Same again, this time with `O=C1/C(=C/c2c(F)cccc2Cl)Cc2ccccc21`
Condition not met

====

Entries and their normalized growth
- procedure_details: chemical genetic growth profiling, strain panel (AID 1159580);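 also: tested at 20 µM; growth read once vehicle control cultures reached saturation at 30 °C; 1 = growth at the plate median or of vehicle wells; lower values mean less growth of the strain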
- condition_set: S. cerevisiae deletion strains, growth OD, locus YPL256C, strain CLN2, hits give low values
Screen size: about 5,500 compounds; about 2,000 (36%) were called active. About 18% were inconclusive and are not listed. Some of the results follow.

1. CCOC(=O)C1=C[C@]2(CC)CCCN3CCc4c(n1c1ccccc41)[C@@H]32; 0.999 (inactive)
2. CCOC(=O)CCCCCCCCCCCCC1C=CCC1 (stereo not given); 1.03 (inactive)
3. Nc1cc(-c2ccc(OC(F)(F)F)cc2)nn1-c1ccc(Cl)c(Cl)c1; 0.604 (active)
4. CC1(C)C/C(=N/Nc2ccc(C(F)(F)F)cc2)c2cc(C(C)(C)C)c(O)c(O)c2O1; 0.243 (active)
5. CC(=O)O[C@H]1CC[C@@]2(C)C(=CCC3C2CC[C@@]2(C)C3CC[C@@H]2C(C)CCCC(C)C)C1 (stereo not given in full); 0.964 (inactive)
6. O=C1O[C@@H](CO)[C@H](O)[C@@H](O)[C@@H]1O; 0.953 (inactive)

Now examine the next entry.
Dear colleague, I am looking for the recorded normalized growth of the following compound: `O=C(O)CCCO`
1.01 (inactive)
